# Measured target: recombinant human cIAP2-BIR3 protein (Homo sapiens)
# Construct: recombinant human cIAP2-BIR3 protein; purchased Reaction biology APT-11-372
# Sequence (Q13489 238-349 limits assumed): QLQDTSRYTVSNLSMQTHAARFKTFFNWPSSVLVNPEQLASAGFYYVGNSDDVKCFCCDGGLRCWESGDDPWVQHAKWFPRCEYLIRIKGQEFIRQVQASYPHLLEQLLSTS
# Assay info: Recombinant human c-IAP2-BIR3 biochemical assay (HTRF, peptide displacement)
# Study conditions: 3.7 nM cIAP2-BIR3, 3.7 nM AbuRPF-K(5-Fam)-NH2 peptide, read-out: Protein binding IC50 (nM) c-IAP2
Reported IC50 is given for each of the following compounds.
Give the value, in units of nM, as a plain number.

// solved cases for IC50 follow
{"columns": ["Input smiles", "IC50 / nM"],
 "data": [
  ["CCNC(=O)c1nc2c(cc1Cc1ccc(F)cc1)N(C(=O)CN1C[C@@H](C)NC[C@@H]1CN1[C@H](C)COC[C@H]1C)[C@@H](C)CO2", 0.44],
  ["C[C@@H]1CN(CC(=O)N2c3cc(Cc4ccc(F)cc4)c(CO)nc3OC[C@@H]2C)[C@@H](CN2C[C@@H]3C[C@H]2CO3)CN1", 0.72],
  ["C[C@@H]1CN(CC(=O)N2c3cc(Cc4ccc(F)cc4)cnc3OC[C@@H]2COCc2ccccc2)[C@@H](CN2[C@H](C)COC[C@H]2C)CN1", 0.18],
  ["CC(C)C[C@H]1COc2ncc(Cc3ccc(F)cc3)cc2N1C(=O)CN1C[C@@H](C)NC[C@@H]1CN1CCOC[C@H]1C", 1.8],
  ["COCCOCCNC(=O)c1nc2c(cc1Cc1ccc(F)cc1)N(C(=O)CN1C[C@@H](C)NC[C@@H]1CN1[C@H](C)COC[C@H]1C)[C@@H](C)CO2", 0.56]
]}

Kindly review the next compound as well.
Q) // map `C[C@@H]1CN(CC(=O)N2c3cc(Cc4ccc(F)cc4)c(CO)nc3OC[C@@H]2C)[C@@H](CN2CCOC[C@H]2C(F)F)CN1` to recorded IC50 (system: recombinant human cIAP2-BIR3 protein (Homo sapiens))
A) 1.9
